Sourced from ChEMBL document CHEMBL1255253

Test system: Human immunodeficiency virus 1
Assay type: functional, organism-based
statedConditions: Human immunodeficiency virus 1, 3B, MT4
# pEC50 per entry
Note on pEC50: it is the negative log10 of concentration, concentration in mol/L.

compoundsmiles=Cn1c(=O)c(C(=O)NCCO)c(O)c2ncc(Cc3ccc(F)cc3)cc21 measurementname=pEC50 reported=8.30
compoundsmiles=O=C(NCc1ccc(F)cc1)c1nc(N2CCCCS2(=O)=O)c2cccnc2c1O measurementname=pEC50 reported=7.96
compoundsmiles=COc1cc2c(cc1Cc1cccc(Cl)c1F)c(=O)c(C(=O)O)cn2[C@H](CO)C(C)C measurementname=pEC50 reported=8.70

Now look at this entry.
Enquiry: I'd like to know its pEC50. The compound in question is Cc1nnc(C(=O)NC(C)(C)c2nc(C(=O)NCc3ccc(F)cc3)c(O)c(=O)n2C)o1
Return: 8.74

----------
system: UniProtKB Q7ZJM1
protocolSummary: Displacement of 20 nM [3H]GSK304649 from Human immunodeficiency virus 1 integrase by scintillation proximity assay
Below, each entry is listed with its recorded pIC50.
Value format note: pIC50 is -log10 of concentration (mol/L); just state the number.

molecule="Cn1c(=O)c(C(=O)NCCO)c(O)c2ncc(Cc3ccc(F)cc3)cc21 [GSK-364735]" system="UniProtKB Q7ZJM1" reported=7.96

// moving on: another record for pIC50
Enquiry: // pIC50 lookup, key: O=C(NCc1ccc(F)cc1)c1nc(N2CCCCS2(=O)=O)c2cccnc2c1O
Return: 7.89

----------
system: Human immunodeficiency virus type 1 integrase (Human immunodeficiency virus 1)
Sequence (Q7ZJM1 whole entry): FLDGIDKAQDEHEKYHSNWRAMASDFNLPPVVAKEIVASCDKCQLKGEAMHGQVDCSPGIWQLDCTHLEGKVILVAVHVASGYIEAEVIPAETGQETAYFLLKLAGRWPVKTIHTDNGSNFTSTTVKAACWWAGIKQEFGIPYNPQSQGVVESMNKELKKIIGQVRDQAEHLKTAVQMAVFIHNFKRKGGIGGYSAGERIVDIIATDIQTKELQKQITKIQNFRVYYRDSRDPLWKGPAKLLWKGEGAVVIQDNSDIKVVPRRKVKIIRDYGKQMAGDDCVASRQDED
protocolSummary: Displacement of [3H]GSK304649 from Human immunodeficiency virus 1 integrase by scintillation proximity assay
measurementName: Kd
Your answer should be a number followed by the unit of measure.

Enquiry: Entry under review: Cn1c(=O)c(C(=O)NCCO)c(O)c2ncc(Cc3ccc(F)cc3)cc21 [GSK-364735] . Reported Kd?
Return: 26 nM

----------
system: Human immunodeficiency virus type 1 integrase (Human immunodeficiency virus 1)
protocolSummary: Displacement of 20 nM [3H]GSK304649 from Human immunodeficiency virus 1 integrase by scintillation proximity assay
measurementName: Kd (nM)
Reply with just the number (in nM).

Enquiry: What measured Kd is associated with O=C(NCc1ccc(F)cc1)c1nc(N2CCCCS2(=O)=O)c2cccnc2c1O on Human immunodeficiency virus type 1 integrase (Human immunodeficiency virus 1)?
Return: 3.3
